Organism: Rattus norvegicus
Assay: DrugMatrix - Regimen: Daily Repeat
Type: toxicity, organism-based, Sprague-Dawley
Design: regimen Daily Repeat, gender Male, age 6-8 weeks
Conditions: in vivo, ip, 0.5 mg/kg, 120 h, tissue Blood, route intraperitoneal, dose level High, time 5 day, vehicle 100 % SALINE
OBSERVABLE: ABSOLUTE BASOPHIL

Problem: Given TRANSPLATIN , state its recorded ABSOLUTE BASOPHIL.
Solution: 86 cells/µL

###

Species on record: Rattus norvegicus
Assay: DrugMatrix - Regimen: Daily Repeat
Assay type: toxicity, organism-based, Sprague-Dawley
Parameters: regimen Daily Repeat, gender Male, age 6-8 weeks
Conditions: in vivo, po, 0 mg/kg, 72 h, tissue Plasma, route oral GAVAGE, dose level Control, time 3 day, vehicle 100 % WATER
OBSERVABLE: ALKALINE PHOSPHATASE (u/L)
Just the number please, in u/L, no unit attached.

Problem: Given O=c1[nH]c(=O)n(C2CCCO2)cc1F (stereo unspecified) [TEGAFUR] , state its recorded ALKALINE PHOSPHATASE.
Solution: 334.17

Problem: Given CCN(C(C)=O)c1cccc(-c2ccnc3c(C#N)cnn23)c1 [ZALEPLON] , state its recorded ALKALINE PHOSPHATASE.
Solution: 416

Problem: Given C#Cc1cccc(Nc2ncnc3cc(OCCOC)c(OCCOC)cc23)c1 [ERLOTINIB] , state its recorded ALKALINE PHOSPHATASE.
Solution: 369

Problem: Given CNC1=Nc2ccc(Cl)cc2C(c2ccccc2)=[N+]([O-])C1 [CHLORDIAZEPOXIDE] , state its recorded ALKALINE PHOSPHATASE.
Solution: 390.83

Problem: Given CCN(CC)CCOC(=O)C1(C2CCCCC2)CCCCC1 [DICYCLOMINE] , state its recorded ALKALINE PHOSPHATASE.
Solution: 399.83

Problem: Given CN(C)C(=O)Oc1cccc([N+](C)(C)C)c1.[Br-] [NEOSTIGMINE BROMIDE] , state its recorded ALKALINE PHOSPHATASE.
Solution: 337

Problem: Given CCN(CC)CCNC(=O)c1ccc(N)cc1 [PROCAINAMIDE] , state its recorded ALKALINE PHOSPHATASE.
Solution: 382.5

Problem: Given CN(C)CCC=C1c2ccccc2CCc2ccccc21 [AMITRIPTYLINE] , state its recorded ALKALINE PHOSPHATASE.
Solution: 416

Problem: Given NC12CC3CC(CC(C3)C1)C2 [AMANTADINE] , state its recorded ALKALINE PHOSPHATASE.
Solution: 416

Problem: Given NC(=O)c1cccnc1 [NIACINAMIDE] , state its recorded ALKALINE PHOSPHATASE.
Solution: 331

Problem: Given CCCC(C)C1(CC)C(=O)NC(=O)NC1=O (stereo unspecified) [PENTOBARBITAL] , state its recorded ALKALINE PHOSPHATASE.
Solution: 337

###

Please respond with reported ABSOLUTE SEGMENTED NEUTROPHIL for every item in the list.
Species on record: Rattus norvegicus
Test: DrugMatrix - Regimen: Daily Repeat
Format: toxicity, organism-based, Sprague-Dawley
Design: regimen Daily Repeat, gender Male, age 6-8 weeks
Details: in vivo, ip, 0 mg/kg, 120 h, tissue Blood, route intraperitoneal, dose level Control, time 5 day, vehicle 100 % SALINE
Just the number please, in cells/µL, no unit attached.

Problem: Given TRANSPLATIN , state its recorded ABSOLUTE SEGMENTED NEUTROPHIL.
Solution: 1170

Problem: Given COBALTOUS CHLORIDE , state its recorded ABSOLUTE SEGMENTED NEUTROPHIL.
Solution: 1170

Where do these numbers come from? They come from ChEMBL document CHEMBL3885881.
